target: Human recombinant DHX9 protein (Homo sapiens (Human)); experiment: DHX9 ATPase assay (ADP-Glo); format: biochemical
Sequence (Q08211 whole entry): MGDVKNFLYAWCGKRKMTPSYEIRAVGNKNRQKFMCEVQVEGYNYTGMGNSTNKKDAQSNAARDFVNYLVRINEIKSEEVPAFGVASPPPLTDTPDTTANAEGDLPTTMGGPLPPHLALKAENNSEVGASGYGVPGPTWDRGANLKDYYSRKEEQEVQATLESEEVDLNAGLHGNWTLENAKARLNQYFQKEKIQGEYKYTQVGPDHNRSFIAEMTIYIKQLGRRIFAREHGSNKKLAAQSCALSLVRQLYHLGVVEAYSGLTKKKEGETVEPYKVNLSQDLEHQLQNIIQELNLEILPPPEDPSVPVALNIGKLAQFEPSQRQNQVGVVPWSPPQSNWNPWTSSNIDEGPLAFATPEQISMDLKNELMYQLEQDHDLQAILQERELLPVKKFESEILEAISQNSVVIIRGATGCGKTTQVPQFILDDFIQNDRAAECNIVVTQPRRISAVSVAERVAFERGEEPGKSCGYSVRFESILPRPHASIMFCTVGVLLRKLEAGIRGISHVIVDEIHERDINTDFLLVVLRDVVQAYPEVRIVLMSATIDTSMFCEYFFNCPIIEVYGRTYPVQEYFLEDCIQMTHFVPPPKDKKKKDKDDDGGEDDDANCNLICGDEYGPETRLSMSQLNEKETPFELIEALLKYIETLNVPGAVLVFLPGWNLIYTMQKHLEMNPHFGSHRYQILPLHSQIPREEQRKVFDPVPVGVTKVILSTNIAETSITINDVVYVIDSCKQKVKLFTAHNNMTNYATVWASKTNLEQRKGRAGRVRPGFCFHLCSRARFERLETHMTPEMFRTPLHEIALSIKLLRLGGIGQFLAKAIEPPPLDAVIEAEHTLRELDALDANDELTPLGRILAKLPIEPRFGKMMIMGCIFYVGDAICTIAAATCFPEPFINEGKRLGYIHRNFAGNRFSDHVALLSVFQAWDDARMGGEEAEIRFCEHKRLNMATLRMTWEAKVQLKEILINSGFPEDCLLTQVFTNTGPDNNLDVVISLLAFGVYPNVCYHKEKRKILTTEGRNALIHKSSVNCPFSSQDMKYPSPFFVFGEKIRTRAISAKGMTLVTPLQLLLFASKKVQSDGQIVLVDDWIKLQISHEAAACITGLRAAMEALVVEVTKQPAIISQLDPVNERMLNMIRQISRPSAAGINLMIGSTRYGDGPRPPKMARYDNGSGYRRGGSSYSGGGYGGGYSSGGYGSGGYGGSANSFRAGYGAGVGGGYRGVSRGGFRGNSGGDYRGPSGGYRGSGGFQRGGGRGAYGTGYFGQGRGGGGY
// reported DHX9 Biochemical Max Inhibition for each item listed
metric: DHX9 Biochemical Max Inhibition (%)

{"columns": ["record smiles", "metric", "units text", "measured number"],
 "data": [
  ["Cc1cc(C(=O)Nc2cc(Cl)cc(NS(C)(=O)=O)c2)cn1C1CCCC1", "DHX9 Biochemical Max Inhibition", "%", 72.4],
  ["CS(=O)(=O)Nc1cc(Br)cc(NC(=O)c2cnn(-c3ncccn3)c2)c1", "DHX9 Biochemical Max Inhibition", "%", 55.5],
  ["CS(=O)(=O)Nc1cc(Cl)cc(NC(=O)c2cccc(-n3cccn3)c2)c1", "DHX9 Biochemical Max Inhibition", "%", 55.5],
  ["CS(=O)(=O)Nc1cc(I)cc(NC(=O)c2cc(-c3ccccc3)cs2)c1", "DHX9 Biochemical Max Inhibition", "%", 46.3]
]}
